Reference source: the supplement of paper PMC10307832

# Tested on: NCI-H441
# assay: relative viability (nuclei count vs DMSO), 5 days (fraction); higher = more cells survive
# experimentalContext: first compound 1 µM
Catalogue of relative viability values
Please reply with the number alone, leaving off any unit.

These recorded examples may help you get a feel for the data.
molecule: NC(=O)Nc1cc(-c2cccc(F)c2)sc1C(=O)N[C@H]1CCCNC1 [AZD7762] + COc1cc2c(Oc3ccc(NC(=O)C4(C(=O)Nc5ccc(F)cc5)CC4)cc3F)ccnc2cc1OCCCN1CCOCC1 [Foretinib] (partner 0.25 µM)
relative viability: 0.955
--
molecule: NC(=O)Nc1cc(-c2cccc(F)c2)sc1C(=O)N[C@H]1CCCNC1 [AZD7762] + CCNC(=O)c1noc(-c2cc(C(C)C)c(O)cc2O)c1-c1ccc(CN2CCOCC2)cc1 [Luminespib] (partner 0.01 µM)
relative viability: 0.212
--
molecule: NC(=O)Nc1cc(-c2cccc(F)c2)sc1C(=O)N[C@H]1CCCNC1 [AZD7762] + Nc1ncn([C@H]2C[C@H](O)[C@@H](CO)O2)c(=O)n1 [Decitabine] (partner 2 µM)
relative viability: 0.27

Request: Lab note: need relative viability for NC(=O)Nc1cc(-c2cccc(F)c2)sc1C(=O)N[C@H]1CCCNC1 [AZD7762] + CS(=O)(=O)N1CCN(Cc2cc3nc(-c4cccc5[nH]ncc45)nc(N4CCOCC4)c3s2)CC1 [Pictilisib] (partner 1 µM) on NCI-H441, anyone have it?
Response: 0.555

Request: Proceed to NC(=O)Nc1cc(-c2cccc(F)c2)sc1C(=O)N[C@H]1CCCNC1 [AZD7762] + Cc1cc(Nc2cc(N3CCN(C)CC3)nc(Sc3ccc(NC(=O)C4CC4)cc3)n2)n[nH]1 [Tozasertib] (partner 0.1 µM)
Response: 0.587

Request: Proceed to NC(=O)Nc1cc(-c2cccc(F)c2)sc1C(=O)N[C@H]1CCCNC1 [AZD7762] + CC(=O)c1c(C)c2cnc(Nc3ccc(N4CCNCC4)cn3)nc2n(C2CCCC2)c1=O [Palbociclib] (partner 0.5 µM)
Response: 0.256

* * *

# Test system: EMC-BAC-2
# assay: relative viability (nuclei count vs DMSO), 5 days (fraction); higher = more cells survive
# experimentalContext: first compound 0.03162 µM
Catalogue of relative viability values
Please reply with the number alone, leaving off any unit.

compound: NC(=O)Nc1cc(-c2cccc(F)c2)sc1C(=O)N[C@H]1CCCNC1 [AZD7762] + Nc1nc2[nH]cc(CCc3ccc(C(=O)N[C@@H](CCC(=O)O)C(=O)O)cc3)c2c(=O)[nH]1 [Pemetrexed] (partner 0.2 µM)
reported: 0.397
//
compound: NC(=O)Nc1cc(-c2cccc(F)c2)sc1C(=O)N[C@H]1CCCNC1 [AZD7762] + Cc1nc(NC(=O)N2CCC[C@H]2C(N)=O)sc1-c1ccnc(C(C)(C)C(F)(F)F)c1 [Alpelisib] (partner 2 µM)
reported: 0.72

Request: Lab note: need relative viability for NC(=O)Nc1cc(-c2cccc(F)c2)sc1C(=O)N[C@H]1CCCNC1 [AZD7762] + CCNC(=O)c1noc(-c2cc(C(C)C)c(O)cc2O)c1-c1ccc(CN2CCOCC2)cc1 [Luminespib] (partner 0.01 µM) on EMC-BAC-2, anyone have it?
Response: 1.16

* * *

Catalogue of relative viability values
# Tested on: NCI-H727
# assay: relative viability (nuclei count vs DMSO), 5 days (fraction); higher = more cells survive
# experimentalContext: first compound 0.4 µM
Please reply with the number alone, leaving off any unit.

compound: O=C(O)c1ccc(-c2c[nH]c3ncc(-c4ccccc4)cc23)cc1C1CCCC1 + CS(=O)(=O)CCNCc1ccc(-c2ccc3ncnc(Nc4ccc(OCc5cccc(F)c5)c(Cl)c4)c3c2)o1 [Lapatinib] (partner 2 µM)
reported: 0.876

Request: // lookup relative viability for O=C(O)c1ccc(-c2c[nH]c3ncc(-c4ccccc4)cc23)cc1C1CCCC1 + COc1cccc2cc(-c3nc([C@H]4CC[C@H](C(=O)O)CC4)n4ncnc(N)c34)[nH]c12 [OSI-027] (partner 0.5 µM)
Response: 0.887

Request: Proceed to O=C(O)c1ccc(-c2c[nH]c3ncc(-c4ccccc4)cc23)cc1C1CCCC1 + CC(C)C[C@H](NC(=O)[C@H](Cc1ccccc1)NC(=O)c1cnccn1)B(O)O [Bortezomib] (partner 0.002 µM)
Response: 0.906
